Recorded values, source patent US10696693B2.

Overview of reported pIC50 across a group of compounds:
- Tested on: TGF-β
- procedure details: AlphaScreen SureFire p-SMAD3 (Ser423/425) assay, TGF-β-stimulated cells
- Format: cell-based
- conditions used: Mus musculus; p-SMAD3 (Ser423/425) AlphaScreen in cell lysate; MPC-11; TGF-β stimulation; read-out: TGF-β: inhibition of TGF-β signaling, TGF-β pSMAD (MPC-11)
pIC50: −log10 of the molar value.

Some solved entries appear below for comparison.
- Fc1ccc(-c2nc3n(c2-c2ccc4[nH]ncc4c2)CCC3)cc1F: 6.00 to 7.00
- COc1c(C)cc(-c2nc3n(c2-c2ccc4ncnn4c2)CCC3)cc1C: < 6.00
- Cc1cc(-c2nc3n(c2-c2ccc4ncsc4c2)CCC3)c(F)cc1Cl: < 6.00
- Fc1ccc(-c2nc3n(c2-c2ccc4nccn4c2)CC2(CCCC2)C3)cc1: < 6.00

Here's the next entry for you.
Incoming: TGF-β / pIC50 / `Cc1c(-c2nc3n(c2-c2ccc4ncsc4c2)CCC3)ccc(F)c1F` : value?
Outgoing: < 6.00

====

- Test system: TGF-β
- procedure details: AlphaScreen SureFire p-SMAD3 (Ser423/425) assay, TGF-β-stimulated cells
- Format: cell-based
- conditions used: Mus musculus, MPC-11, read-out: TGF-β: inhibition of TGF-β signaling, TGF-β pSMAD (MPC-11), p-SMAD3 (Ser423/425) AlphaScreen in cell lysate, TGF-β stimulation
- From the text: The p-SMAD-3 (Ser423/425) SureFire® assay has been designed to measure the phosphorylation of endogenous cellular p-SMAD-3 (Ser423/425) in cell lysates and is a system for the screening of both modulators of receptor activation (e.g. agonists and antagonists) as well as agents acting intracellularly, such as small molecule inhibitors of upstream events. The assay will measure p-SMAD-3 (Ser423/425) activation by either cloned or endogenous receptors, and can be applied to primary cells. […]
// values below are reported IC50

• Clc1cccc(-c2nc3n(c2-c2ccc4[nH]ncc4c2)CCC3)c1 = 100 to 1000 nM

Incoming: Form field: reported IC50 of OCC1CCC2(CC1)Cc1nc(-c3ccc(F)cc3)c(-c3ccc4ncsc4c3)n1C2 (centres unmarked)
Outgoing: > 1000 nM

Incoming: Fill in the blank: the reported IC50 of `Fc1ccc(-c2nc3n(c2-c2ccc4ncnn4c2)CCC3)c(F)c1Cl` is ____.
Outgoing: 100 to 1000 nM

Incoming: Name the recorded IC50 for `Cc1ccc(F)cc1-c1nc2n(c1-c1ccc3[nH]ncc3c1)CCC2` .
Outgoing: > 1000 nM

Incoming: Which IC50 is listed for `Fc1ccc(-c2nc3n(c2-c2ccc4nccnc4c2)CC2(CCCC2)C3)cc1` ?
Outgoing: > 1000 nM

====

- System: TGF-β
- procedure details: AlphaScreen SureFire p-SMAD3 (Ser423/425) assay, TGF-β-stimulated cells
- Assay type: cell-based
- conditions used: read-out: TGF-β: inhibition of TGF-β signaling, TGF-β pSMAD (MPC-11), p-SMAD3 (Ser423/425) AlphaScreen in cell lysate, TGF-β stimulation
endpoint: IC50

Example entries begin here.
- Cc1cc(-c2nc3n(c2-c2ccc4ncccc4c2)CCC3)c(Cl)cc1F [Compound 322]: > 1000 nM
- Cc1cc(-c2nc3n(c2-c2ccc4nccnc4c2)CCC3)c(Cl)cc1F [Compound 321]: > 1000 nM
- Cc1cc(-c2nc3n(c2-c2ccc4ncsc4c2)CCC3)c(Cl)cc1F [Compound 323]: > 1000 nM

From here, focus on the item given below.
Incoming: Sample Cc1cc(-c2nc3n(c2-c2ccc4ncsc4c2)CCC3)c(Cl)cc1F [Compound 317] — what was its IC50?
Outgoing: 100 to 1000 nM

====

- System: TGF-β
- procedure details: AlphaScreen SureFire p-SMAD3 (Ser423/425) assay, TGF-β-stimulated cells
- Assay type: cell-based
- conditions used: Mus musculus; p-SMAD3 (Ser423/425) AlphaScreen in cell lysate; MPC-11; TGF-β stimulation; read-out: TGF-β: inhibition of TGF-β signaling, TGF-β pSMAD (MPC-11)
endpoint: IC50

Incoming: Look up IC50 for this compound: `Fc1ccc(Cl)cc1-c1nc2n(c1-c1ccc3ncsc3c1)CCC2`
Outgoing: < 50 nM

====

- Tested on: TGF-β
- procedure details: AlphaScreen SureFire p-SMAD3 (Ser423/425) assay, TGF-β-stimulated cells
- Format: cell-based
- conditions used: Mus musculus, MPC-11, read-out: TGF-β: inhibition of TGF-β signaling, TGF-β pSMAD (MPC-11), p-SMAD3 (Ser423/425) AlphaScreen in cell lysate, TGF-β stimulation
endpoint: IC50

* COc1ccc(-c2nc3n(c2-c2ccc4ncccc4c2)CCC3)cc1 | > 1000 nM
* Cc1c(F)ccc(-c2nc3n(c2-c2ccc4nccnc4c2)CCC3)c1C | > 1000 nM
* Cc1ccc(F)cc1-c1nc2n(c1-c1ccc3ncsc3c1)CCC2 | > 1000 nM
* Fc1ccc(-c2nc3n(c2-c2ccc4[nH]ncc4c2)CC2(CCCC2)C3)cc1 | > 1000 nM
* Cc1c(F)ccc(-c2nc3n(c2-c2ccc4ncsc4c2)CCC3)c1C | > 1000 nM
* CN(C)CCOc1cnc2ccc(-c3c(-c4cc(F)cc(F)c4F)nc4n3CCC4)cc2n1 | > 1000 nM
* COCCOc1cnc2ccc(-c3c(-c4ccc(F)c(Cl)c4)nc4n3CCC4)cc2n1 | 100 to 1000 nM
* Fc1ccc(-c2nc3n(c2-c2ccc4ncccc4c2)CC2(CCCC2)C3)cc1 | > 1000 nM
* CN(C)CCOc1cnc2ccc(-c3c(-c4cc(F)c(F)cc4F)nc4n3CCC4)cc2n1 | 100 to 1000 nM
* Cc1cccc(-c2nc3n(c2-c2ccc4ncsc4c2)CCC3)n1 | < 50 nM

Incoming: Fill in: IC50 of `Fc1ccc(-c2nc3n(c2-c2ccc4cn[nH]c4c2)CCC3)cc1` is ___
Outgoing: > 1000 nM

Incoming: If you can, please state the reported IC50 value of `Fc1ccc(-c2nc3n(c2-c2ccc4[nH]ncc4c2)CCC3)c(F)c1F` .
Outgoing: 100 to 1000 nM

Incoming: Can you share its IC50? I mean this compound: `Cc1c(F)ccc(-c2nc3n(c2-c2ccc4[nH]ncc4c2)CCC3)c1C`
Outgoing: > 1000 nM

====

- System: TGF-β
- procedure details: AlphaScreen SureFire p-SMAD3 (Ser423/425) assay, TGF-β-stimulated cells
- Type: cell-based
- conditions used: Mus musculus; p-SMAD3 (Ser423/425) AlphaScreen in cell lysate; MPC-11; TGF-β stimulation; read-out: TGF-β: inhibition of TGF-β signaling, TGF-β pSMAD (MPC-11)
pIC50: −log10 of the molar value.
Here, each record is paired with measured pIC50 data.

* Fc1cccc(-c2nc3n(c2-c2ccc4ncccc4c2)CCC3)c1 | < 6.00
* Fc1cccc(F)c1-c1nc2n(c1-c1ccc3cn[nH]c3c1)CCC2 | < 6.00
* Cc1cc(-c2nc3n(c2-c2ccc4ncsc4c2)CCC3)cc(C)c1F | < 6.00
* Cc1cc(-c2nc3n(c2-c2ccc4[nH]ncc4c2)CCC3)cc(Cl)c1F | < 6.00
* Fc1cc(-c2nc3n(c2-c2ccc4nccnc4c2)CCC3)c(F)cc1Cl | < 6.00

Incoming: Would you kindly share the measured pIC50 for `Fc1ccccc1-c1nc2n(c1-c1ccc3cn[nH]c3c1)CCC2` ?
Outgoing: < 6.00

Incoming: Sample `Cc1ccc(F)cc1-c1nc2n(c1-c1ccc3nccn3c1)CCC2` — what was its pIC50?
Outgoing: < 6.00

Incoming: Entry under review: `Cc1ccccc1-c1nc2n(c1-c1ccc3nccn3c1)CCC2` . Reported pIC50?
Outgoing: < 6.00

Incoming: Which pIC50 reading was recorded for the molecule `Cc1cc(-c2nc3n(c2-c2ccc4nccnc4c2)CCC3)c(F)cc1Cl` ?
Outgoing: < 6.00

Incoming: What value of pIC50 has been reported for the following molecule? `Cc1ccc(Cl)cc1-c1nc2n(c1-c1ccc3nccnc3c1)CCC2`
Outgoing: 6.00 to 7.00

Incoming: Tell me the measured pIC50 of `Fc1cc(F)c(-c2nc3n(c2-c2cc4cnccc4s2)CCC3)cc1F` , please.
Outgoing: 6.00 to 7.00

====

- System: TGF-β
- procedure details: AlphaScreen SureFire p-SMAD3 (Ser423/425) assay, TGF-β-stimulated cells
- Assay type: cell-based
- conditions used: Mus musculus; p-SMAD3 (Ser423/425) AlphaScreen in cell lysate; MPC-11; TGF-β stimulation; read-out: TGF-β: inhibition of TGF-β signaling, TGF-β pSMAD (MPC-11)
# IC50 per entry

Examples with their reported IC50 follow.
- Cc1cc(-c2nc3n(c2-c2ccc4nccn4c2)CCC3)cc(C)c1Cl: > 1000 nM
- Cc1ccc(-c2nc3n(c2-c2ccc4nccnc4c2)CCC3)c(F)c1F: > 1000 nM
- FC(F)(F)c1cccc(-c2nc3n(c2-c2ccc4nccnc4c2)CCC3)c1: 100 to 1000 nM

Incoming: Would you kindly share the measured IC50 for `Fc1ccc(-c2nc3occn3c2-c2ccc3nccnc3c2)cc1F` ?
Outgoing: 100 to 1000 nM

Incoming: What value of measured IC50 is listed for `Cc1c(-c2nc3n(c2-c2ccc4nccnc4c2)CCC3)ccc(F)c1F` ?
Outgoing: > 1000 nM

Incoming: // lookup IC50 for `Clc1cccc(-c2nc3n(c2-c2ccc4nccn4c2)CCC3)c1`
Outgoing: 100 to 1000 nM

Incoming: Would you mind telling me what IC50 value was observed for `Fc1cc(F)c(-c2nc3n(c2-c2ccc4nccnc4c2)CCC3)cc1F` ?
Outgoing: 100 to 1000 nM

Incoming: Which IC50 value is on record for `Fc1ccc(-c2nc3occn3c2-c2ccc3nccn3c2)c(F)c1F` ?
Outgoing: 100 to 1000 nM

Incoming: For `CN(C)CCOc1cnc2ccc(-c3c(-c4cc(Cl)ccc4F)nc4n3CCC4)cc2n1` , what is its reported IC50?
Outgoing: < 50 nM
